# credit: ChEMBL document CHEMBL1140021

# ASSAY_EXPLANATION: Displacement of [125I]TZDM from human beta amyloid fibril 1-42
Provide the recorded pKi for the entries that follow.
The value called pKi is obtained by taking minus log10 of the concentration in mol/L.

Looking up COc1cc(/C=C/C(=O)O)ccc1OCCOc1ccc(N(C)C)cc1OC , I see its pKi listed as 9.00

Looking up Nc1ccc2nc(NCCNc3nc4ccc(N)cc4s3)sc2c1 , I see its pKi listed as 9.16

Looking up Cc1ccc2nc(N(C)CCN(C)c3nc4ccc(C)cc4s3)sc2c1 , I see its pKi listed as 9.21

Looking up Clc1ccc2nc(NCCNc3nc4ccc(Cl)cc4s3)sc2c1 , I see its pKi listed as 9.02

Looking up COc1cc(/C=C/C(=O)O)ccc1N1CCN(c2ccc(/C=C/C(=O)O)cc2OC)CC1 , I see its pKi listed as 8.87

Looking up CN(CCN(C)c1nc2ccc(F)cc2s1)c1nc2ccc(F)cc2s1 , I see its pKi listed as 8.86

Looking up Fc1ccc2nc(NCCNc3nc4ccc(F)cc4s3)sc2c1 , I see its pKi listed as 9.12

Looking up COc1cc(/C=C/C(=O)O)ccc1N(C)CCN(C)c1ccc(/C=C/C(=O)O)cc1OC , I see its pKi listed as 9.14

Looking up Cc1ccc2nc(NCCNc3nc4ccc(C)cc4s3)sc2c1 , I see its pKi listed as 9.09

Looking up COc1cc(/C=C/C(=O)O)ccc1OCCOc1ccc(N(CC(=O)O)CC(=O)O)cc1OC , I see its pKi listed as 9.24

Looking up COc1cc(/C=C/C(=O)O)ccc1OCCOc1ccc(/C=C/C(=O)O)cc1OC , I see its pKi listed as 9.22

Looking up CN(CCN(C)c1nc2ccc(S(C)(=O)=O)cc2s1)c1nc2ccc(S(C)(=O)=O)cc2s1 , I see its pKi listed as 9.26

Looking up Brc1ccc2nc(NCCNc3nc4ccc(Br)cc4s3)sc2c1 , I see its pKi listed as 8.95

Looking up CN(CCN(C)c1nc2ccccc2s1)c1nc2ccccc2s1 , I see its pKi listed as 9.28

Looking up c1ccc2sc(NCCNc3nc4ccccc4s3)nc2c1 , I see its pKi listed as 9.15

Looking up [11CH3]Nc1ccc(-c2nc3ccc(O)cc3s2)cc1 [PITTSBURGH COMPOUND B] , I see its pKi listed as 9.11

Looking up CN(CCN(C)c1nc2ccc(Cl)cc2s1)c1nc2ccc(Cl)cc2s1 , I see its pKi listed as 9.19

Looking up CN(CCN(C)c1nc2ccc(Br)cc2s1)c1nc2ccc(Br)cc2s1 , I see its pKi listed as 9.26

Looking up CN(CCN(C)c1nc2ccc(N)cc2s1)c1nc2ccc(N)cc2s1 , I see its pKi listed as 9.16

Looking up COc1cc(/C=C/C(=O)O)ccc1O [FERULATE] , I see its pKi listed as 9.11
